System: PPARa:RXRa (NR concentration 270 nM, RXRa partner concentration 90 nM)
Test: PBM binding z-score (relative to random genomic background probes); higher = stronger binding; sequences stand for … in GC…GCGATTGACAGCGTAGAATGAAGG
Rule: fulfilled for PBM binding z-score not less than 3, not fulfilled for anything less.

Prompt: Given `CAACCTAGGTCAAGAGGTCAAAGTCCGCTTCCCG` , state whether its PBM binding z-score is at least 3.
Response: fulfilled

Prompt: Given `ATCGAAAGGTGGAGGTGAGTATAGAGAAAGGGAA` , state whether its PBM binding z-score is at least 3.
Response: not fulfilled

Prompt: Given `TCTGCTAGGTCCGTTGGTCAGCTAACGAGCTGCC` , state whether its PBM binding z-score is at least 3.
Response: not fulfilled

Prompt: Given `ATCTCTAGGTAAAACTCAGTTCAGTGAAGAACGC` , state whether its PBM binding z-score is at least 3.
Response: not fulfilled

Prompt: Given `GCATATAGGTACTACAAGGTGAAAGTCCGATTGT` , state whether its PBM binding z-score is at least 3.
Response: not fulfilled
